ASSAY METHOD TEXT: Cytotoxicity against human HEK293 cells assessed as viable cells at 50 uM after 48 hrs by calcein-AM staining based fluorescence analysis
Format: cell-based
ASSAY CONDITIONS: read-out: Activity
READOUT KIND: viability at 48 h, 50 µM

Identify viability at 48 h, 50 µM associated with the compound COc1cc(/C=C\C(=O)NCCCNCc2cccc(CNCCCNC(=O)/C=C\c3cc(OC)c(Br)cc3Br)c2)c(Br)cc1Br
> 95%
